Test system: Bla g-specific T cells (PBMC)
Assay: ELISPOT assays: IL-5, IFN-γ and IL-10 production by in vitro expanded PBMC of Cockroach-allergic donors
Format: cell-based, human
OBSERVABLE: T cell response pattern (IL-5 / IFN-γ), in words

INSERT INTO measurements (molecule, value_reported) VALUES
  ('Bla g 4: German Cockroach allergen Bla g 4 (protein, listed as Blattella germanica) AVLALCATDTLANEDCFRHESLVPNLDYERFRGSWIIAAGTSEALTQYKCWIDRFSYDDALVSKYTDSQGKNRTTIRGRTKFEGNKFTIDYNDKGKAFSAPYSVLATDYENYAIVEGCPAAANGHVIYVQIRFSVRRFHPKLGDKEMIQHYTLDQVNQHKKAIEEDLKHFNLKYEDLHSTCH', 'Little or no response'),
  ('Bla g 7: German Cockroach allergen Bla g 7 (protein, listed as Blattella germanica) MDAIKKKMQAMKLEKDNAMDRALLCEQQARDANIRAEKAEEEARSLQKKIQQIENDLDQTMEQLMQVNAKLDEKDKALQNAESEVAALNRRIQLLEEDLERSEERLATATAKLAEASQAADESERARKILESKGLADEERMDALENQLKEARFMAEEADKKYDEVARKLAMVEADLERAEERAETGESKIVELEEELRVVGNNLKSLEVSEEKANLREEEYKQQIKTLNTRLKEAEARAEFAERSVQKLQKEVDRLEDELVHEKEKYKYICDDLDMTFTELIGN', 'Little or no response');

Just for reference, patent US11421006B2 is where these values come from.
